Target: Rvs167, P39743
Sequence (P39743 419-482): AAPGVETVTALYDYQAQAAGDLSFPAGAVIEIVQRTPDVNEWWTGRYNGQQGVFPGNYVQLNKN
Test: SPOT array
Settings: median of control spots 2707
property: SPOT intensity

> print(dat)
            binder        property  numeric.readout
1  NMLKKKPLKKPLKRF  SPOT intensity                0

I = PKMLPIPSKPTLFDL
II = RRARRQMGIPTISQV
III = GAGERPRLVPRPINV
Request: Given 3 binders, produce a descending ranking by SPOT intensity. Present the labels in the sequence the task asks for.
Response: III, II, I
(III: 4, II: 2, I: 0)
